- protocol_description: antimalarial activity against Dd2 strain (AID 2302);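 further: 0% = DMSO untreated growth and 100% = chloroquine plus artemisinin killed control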
- run_parameters: P. falciparum Dd2 in RBCs, LDH growth readout, 72 h; at 2 µM
Calls of active or inactive are those of the source.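 How the source made its calls: active means growth inhibition above 50% at the single 2 µM test dose, taken to imply half-maximal potency below 2 µM; inactive means the rest.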
Labels: true (1) (active), false (0) (inactive)

1) Cc1cccc2[nH]c(-c3ccc(-c4cccc(NCc5cn6cccnc6n5)c4)cc3)nc12	true (1)
2) COc1ccc2c(c1)Sc1ccccc1C(N1CCN(CCO)CC1)C2 (centres undefined)	false (0)
3) COc1cc2nc(NCCc3ccccc3)nc(NCc3cnn(C)c3C)c2cc1OC	true (1)
4) O=S(=O)(NCCN1CCCC1)c1ccc(-c2cccc(CNCc3ccc(F)cc3)c2)cc1	false (0)
5) Cc1ccc(-c2nc(N3CCN(C(=O)c4ccco4)CC3)c3ccc(Cl)cc3n2)cc1	true (1)
6) Cc1ccc(NC(=O)c2ccc3ncccc3c2)cc1OC1CCN(Cc2ccco2)C1 (centres undefined)	false (0)
7) Cc1noc(-c2ccc(NC[C@@H](C)NC[C@H](O)c3cccc(Cl)c3)cc2)n1	true (1)
8) c1cc(CN2CCC(CCN3CCCCC3)CC2)cc(-c2csc(-c3nc4ccccc4[nH]3)c2)c1	true (1)
9) CCn1cnc2c(N3CCCCS3(=O)=O)cc(C(=O)N[C@@H](Cc3ccccc3)[C@H](O)CNC3CCOCC3)cc21	true (1)
